Items are presented alongside their recorded Kd.
- SYSTEM: T1, Interleukin-13 (human, UniProt P35225 25-146)
- T1 construct: Interleukin-13, human, UniProt P35225; see the manufacturer's catalogue number; also called IL-13; source: bought: PeproTech (source E. coli)
- T1 sequence (P35225 25-146): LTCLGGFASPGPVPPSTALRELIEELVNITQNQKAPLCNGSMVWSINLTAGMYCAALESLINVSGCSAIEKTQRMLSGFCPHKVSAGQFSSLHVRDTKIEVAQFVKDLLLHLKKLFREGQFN
- PROCEDURE DETAILS: SPR; cytokine immobilised on ProteOn GLH sensor chip by amine coupling (9,000-14,000 RU); S100P (wild type or mutant) as analyte, 62 nM-16 µM; 25 °C; 10 mM HEPES, 150 mM NaCl, 1 mM CaCl2, 0.05% TWEEN 20, pH 7.4; heterogeneous ligand model (two ligand populations), one-site model for IL-13; values averaged over analyte concentrations (n = 3-5)
- APPLIED CONDITIONS: both partners purified
PARAMETER: Kd

>>> value_reported("Human S100P mutant F89A (natural protein, S100P protein, human, recombinant, with F89A; source: E. coli, prepared as previously described [28]) MTELETAMGMIIDVFSRYSGSEGSTQTLTKGELKVLMEKELPGFLQSGKDKDAVDKLLKDLDANGDAQVDFSEFIVFVAAITSACHKYAEKAGLK")
"> 100 µM"
>>> value_reported("Human S100P mutant Δ42–47 (lacks PGFLQS sequence in the 'hinge') (natural protein, S100P protein, human, recombinant, with residues 42-47 (PGFLQS) deleted; source: E. coli, prepared as previously described [28]) MTELETAMGMIIDVFSRYSGSEGSTQTLTKGELKVLMEKELGKDKDAVDKLLKDLDANGDAQVDFSEFIVFVAAITSACHKYFEKAGLK")
"> 100 µM"
